System Under Test: AR protein (Homo sapiens, UniProt P10275, T878A)
Construct: host or cells: LNCaP FGC
Sequence (P10275 whole entry T878A): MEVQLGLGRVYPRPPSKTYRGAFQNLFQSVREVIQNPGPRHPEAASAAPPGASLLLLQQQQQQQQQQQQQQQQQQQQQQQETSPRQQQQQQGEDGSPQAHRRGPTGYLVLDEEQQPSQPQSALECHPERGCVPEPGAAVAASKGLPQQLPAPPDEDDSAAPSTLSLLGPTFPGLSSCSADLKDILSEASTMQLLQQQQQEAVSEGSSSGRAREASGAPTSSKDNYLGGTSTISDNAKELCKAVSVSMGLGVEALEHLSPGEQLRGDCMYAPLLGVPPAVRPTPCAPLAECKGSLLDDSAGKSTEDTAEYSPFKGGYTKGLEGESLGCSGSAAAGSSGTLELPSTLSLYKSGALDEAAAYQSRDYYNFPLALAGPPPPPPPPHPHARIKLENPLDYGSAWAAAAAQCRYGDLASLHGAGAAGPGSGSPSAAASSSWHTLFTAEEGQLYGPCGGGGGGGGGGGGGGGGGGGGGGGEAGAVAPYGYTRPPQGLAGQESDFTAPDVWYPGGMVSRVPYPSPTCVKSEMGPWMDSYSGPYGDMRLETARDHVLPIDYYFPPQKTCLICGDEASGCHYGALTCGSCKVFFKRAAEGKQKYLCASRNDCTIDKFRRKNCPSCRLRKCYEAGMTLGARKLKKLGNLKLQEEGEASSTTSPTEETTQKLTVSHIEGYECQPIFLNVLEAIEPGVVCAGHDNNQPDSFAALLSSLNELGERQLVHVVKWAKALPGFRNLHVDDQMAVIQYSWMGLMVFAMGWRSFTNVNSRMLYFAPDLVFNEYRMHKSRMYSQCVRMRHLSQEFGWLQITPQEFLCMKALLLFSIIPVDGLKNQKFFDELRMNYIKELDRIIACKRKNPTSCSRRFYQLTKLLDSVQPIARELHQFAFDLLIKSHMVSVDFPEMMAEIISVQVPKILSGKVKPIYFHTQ
Assay Overview: AR protein degradation in LNCaP cells (Western blot)
Format: cell-based
Condition Info: 100 nM, 8 hours
Recorded Endpoint: Degradation of AR protein in LNCaP cells, 100 nM (%)
Quick reminder: number only, in %, skip the unit.

Qu. So what does the record say about Degradation of AR protein in LNCaP cells, 100 nM (%) for COc1cc(O[C@H]2C(C)(C)[C@H](NC(=O)c3ccc(N4CCC(C)(CN5CCC6(CCc7cc(C(=O)N[C@H]8CCC(=O)NC8=O)c(F)cc7O6)CC5)CC4)nn3)C2(C)C)ccc1C#N [A-P-48] ?
Ans. 63

Qu. Find the recorded Degradation of AR protein in LNCaP cells, 100 nM (%) belonging to C[C@H]1CC2(CCN(c3ccc(N4CCC(CN5CC6(CCC7(CC6)COc6c7ccc7c6CN(C6CCC(=O)NC6=O)C7=O)C5)CC4)cc3)CC2)CN1c1ccc(C#N)c(Cl)c1 (stereo partly drawn) [A-P-6] and report it.
Ans. 60

Qu. GET /values?readout=Degradation of AR protein in LNCaP cells, 100 nM (%)&item= COc1cc(O[C@H]2C(C)(C)[C@H](NC(=O)c3ccc(N4CCC(CN5CCC6(CC5)COc5c6ccc(C(=O)N[C@H]6CCC(=O)NC6=O)c5F)CC4)cc3)C2(C)C)ccc1C#N [A-P-83]
Ans. 65
